Attribution: paper PMC3722118

Tested on: SKMEL-28 melanoma cells
Assay text: MTT colorimetric in vitro growth inhibition assay
Assay type: cell-based, human
Assay context: Homo sapiens, SK-MEL-28, 72 h; three days of culture; * three independent experiments, ** one experiment, six replicates; read-out: IC50 (nM) SKMEL-28
Measured IC50, listed per entry for reference.
Answer in nM, number only, no unit symbol.

Worked set:
C[C@@H]1O[C@@H](O[C@H]2CC[C@@]3(C)[C@@H](CC[C@@H]4[C@@H]3CC[C@]3(C)[C@@H](C5=CC(=O)OC5)CC[C@]43O)C2)[C@H](O)[C@H](O)[C@H]1O [Uzarigenin-rhamnoside] :: 222
C[C@H]1O[C@@H](O[C@H]2[C@@H](O)C[C@H](O[C@H]3[C@@H](O)C[C@H](O[C@H]4CC[C@@]5(C)[C@H](CC[C@@H]6[C@@H]5CC[C@]5(C)[C@@H](C7=CC(=O)OC7)CC[C@]65O)C4)O[C@@H]3C)O[C@@H]2C)C[C@H](O)[C@@H]1O :: 59
C[C@H]1O[C@@H](O[C@H]2[C@@H](O)C[C@H](O[C@H]3[C@@H](O)C[C@H](O[C@H]4CC[C@@]5(C)[C@H](CC[C@@H]6[C@@H]5C[C@@H](O)[C@]5(C)[C@@H](C7=CC(=O)OC7)CC[C@]65O)C4)O[C@@H]3C)O[C@@H]2C)C[C@H](O)[C@@H]1O :: 220

Query block: Return IC50 measured with SKMEL-28 melanoma cells given this compound: `C[C@]12CC[C@H](O)C[C@H]1CC[C@@H]1[C@@H]2C[C@@H](O)[C@]2(C)[C@@H](C3=CC(=O)OC3)CC[C@]12O`
Result block: 4000

Query block: Return IC50 measured with SKMEL-28 melanoma cells given this compound: `C[C@@H]1O[C@@H](O[C@H]2C[C@@H](O)[C@]3(CO)[C@H]4[C@H](O)C[C@]5(C)[C@@H](C6=CC(=O)OC6)CC[C@]5(O)[C@@H]4CC[C@]3(O)C2)[C@H](O)[C@H](O)[C@H]1O`
Result block: 83

---

System name: human α1β1 NaK complex (Homo sapiens, UniProt P05023)
Construct: made in house; host or cells: Pichia pastoris strain SMD1165 (membranes)
Assay text: 3H-ouabain competitive displacement on P. pastoris membranes
Type: binding
Assay context: 3H-ouabain displacement, three independent experiments; read-out: Affinity (nM) α-1 (KD ± SEM)
Measured Kd, listed per entry for reference.
Answer in nM, number only, no unit symbol.

Worked set:
C[C@@H]1O[C@@H](O[C@H]2CC[C@@]3(C)[C@H](CC[C@@H]4[C@@H]3[C@H](O)C[C@]3(C)[C@@H](c5ccc(=O)oc5)CC[C@]43O)C2)[C@H](O)[C@H](O)[C@H]1O [Gamabufotalin-rhamnoside] :: 30
C[C@@H]1O[C@@H](O[C@H]2CC[C@]3(C=O)[C@H]4CC[C@]5(C)[C@@H](c6ccc(=O)oc6)CC[C@]5(O)[C@@H]4CC[C@]3(O)C2)[C@H](O)[C@H](O)[C@H]1O[C@@H]1O[C@H](CO)[C@@H](O)[C@H](O)[C@H]1O [Hellebrin] :: 86
C[C@]12CC[C@H](O)C[C@H]1CC[C@@H]1[C@@H]2[C@H](O)C[C@]2(C)[C@@H](c3ccc(=O)oc3)CC[C@]12O [Gamabufotalin, gamabufotalin] :: 243

Pending compound:
Query block: Give its Kd value. Item: C[C@]12CC[C@H]3[C@@H](CC[C@]4(O)C[C@@H](O)CC[C@]34C=O)[C@@]1(O)CC[C@@H]2c1ccc(=O)oc1 [Hellebrigenin]
Result block: 103

---

Measured Selectivity α-1 / α-2, listed per entry for reference.
System name: human α2β1 NaK complex (Homo sapiens)
Construct: made in house; host or cells: Pichia pastoris strain SMD1165 (membranes)
Assay text: 3H-ouabain competitive displacement on P. pastoris membranes
Type: binding
Assay context: ratio of KD α-1 to KD α-2
Experimental: K0.5 was calculated using a one site inhibition model: B/BCG=0 = K0.5/([CG] + K0.5). […] Binding of each cardiac glycoside was estimated in 3 separate experiments. Average KD or Ki values ± SEM for each isoform were calculated. Statistical significance was calculated by the unpaired Students t-test. P values <0.05 were considered significant.
// print number alone

Worked set:
C[C@@H]1O[C@@H](O[C@H]2CC[C@]3(C=O)[C@H]4CC[C@]5(C)[C@@H](c6ccc(=O)oc6)CC[C@]5(O)[C@@H]4CC[C@]3(O)C2)[C@H](O)[C@H](O)[C@H]1O[C@@H]1O[C@H](CO)[C@@H](O)[C@H](O)[C@H]1O :: 0.4
C[C@]12CC[C@H](O)C[C@H]1CC[C@@H]1[C@@H]2[C@H](O)C[C@]2(C)[C@@H](c3ccc(=O)oc3)CC[C@]12O :: 1.0
C[C@]12CC[C@H]3[C@@H](CC[C@]4(O)C[C@@H](O)CC[C@]34C=O)[C@@]1(O)CC[C@@H]2c1ccc(=O)oc1 :: 0.5

Pending compound:
Query block: Give its Selectivity α-1 / α-2 value. Item: C[C@@H]1O[C@@H](O[C@H]2CC[C@@]3(C)[C@H](CC[C@@H]4[C@@H]3[C@H](O)C[C@]3(C)[C@@H](c5ccc(=O)oc5)CC[C@]43O)C2)[C@H](O)[C@H](O)[C@H]1O [Gamabufotalin-rhamnoside]
Result block: 0.8

---

Measured IC50, listed per entry for reference.
System: MCF-7 breast cancer cells
Assay text: MTT colorimetric in vitro growth inhibition assay
Type: cell-based, human
Assay context: Homo sapiens, MCF7, 72 h, read-out: IC50 (nM) MCF-7
Answer in nM, number only, no unit symbol.

Worked set:
C[C@@H]1O[C@@H](O[C@H]2CC[C@@]3(C)[C@H](CC[C@@H]4[C@@H]3[C@H](O)C[C@]3(C)[C@@H](c5ccc(=O)oc5)CC[C@]43O)C2)[C@H](O)[C@H](O)[C@H]1O [Gamabufotalin-rhamnoside] :: 17
C[C@]12CC[C@H](O)C[C@H]1CC[C@@H]1[C@@H]2CC[C@]2(C)[C@@H](C3=CC(=O)OC3)CC[C@]12O [Digitoxigenin] :: 2130
C[C@H]1O[C@@H](O[C@H]2[C@@H](O)C[C@H](O[C@H]3[C@@H](O)C[C@H](O[C@H]4CC[C@@]5(C)[C@H](CC[C@@H]6[C@@H]5CC[C@]5(C)[C@@H](C7=CC(=O)OC7)[C@@H](O)C[C@]65O)C4)O[C@@H]3C)O[C@@H]2C)C[C@H](O)[C@@H]1O [Gitoxin] :: 828
C[C@]12CC[C@H](O)C[C@H]1CC[C@@H]1[C@@H]2[C@H](O)C[C@]2(C)[C@@H](c3ccc(=O)oc3)CC[C@]12O [Gamabufotalin, gamabufotalin] :: 40

Query block: Give its IC50 value. Item: C[C@@H]1O[C@@H](O[C@H]2CC[C@]3(C=O)[C@H]4CC[C@]5(C)[C@@H](c6ccc(=O)oc6)CC[C@]5(O)[C@@H]4CC[C@]3(O)C2)[C@H](O)[C@H](O)[C@H]1O[C@@H]1O[C@H](CO)[C@@H](O)[C@H](O)[C@H]1O [Hellebrin]
Result block: 58

---

Test system: SKMEL-28 melanoma cells
Assay text: MTT colorimetric in vitro growth inhibition assay
Type: cell-based, human
Assay context: Homo sapiens, SK-MEL-28, 72 h, read-out: IC50 (nM) SKMEL-28
Measured IC50, listed per entry for reference.
Answer in nM, number only, no unit symbol.

C[C@]12CC[C@H](O)C[C@H]1CC[C@@H]1[C@@H]2CC[C@]2(C)[C@@H](C3=CC(=O)OC3)CC[C@]12O :: 2500
C[C@H]1O[C@@H](O[C@H]2[C@@H](O)C[C@H](O[C@H]3[C@@H](O)C[C@H](O[C@H]4CC[C@@]5(C)[C@H](CC[C@@H]6[C@@H]5CC[C@]5(C)[C@@H](C7=CC(=O)OC7)[C@@H](O)C[C@]65O)C4)O[C@@H]3C)O[C@@H]2C)C[C@H](O)[C@@H]1O :: 679
C[C@]12CC[C@H](O)C[C@H]1CC[C@@H]1[C@@H]2[C@H](O)C[C@]2(C)[C@@H](c3ccc(=O)oc3)CC[C@]12O :: 22

Query block: Give its IC50 value. Item: C[C@@H]1O[C@@H](O[C@H]2CC[C@@]3(C)[C@H](CC[C@@H]4[C@@H]3[C@H](O)C[C@]3(C)[C@@H](c5ccc(=O)oc5)CC[C@]43O)C2)[C@H](O)[C@H](O)[C@H]1O [Gamabufotalin-rhamnoside]
Result block: 18

Query block: Give its IC50 value. Item: `C[C@@H]1O[C@@H](O[C@H]2CC[C@]3(C=O)[C@H]4CC[C@]5(C)[C@@H](c6ccc(=O)oc6)CC[C@]5(O)[C@@H]4CC[C@]3(O)C2)[C@H](O)[C@H](O)[C@H]1O[C@@H]1O[C@H](CO)[C@@H](O)[C@H](O)[C@H]1O`
Result block: 40
